- Test system: forty-four human cancer cell lines
- Test Protocol: Cell proliferation assay (ATPlite, 72 hours) in the 44 cell line Oncolines panel
- Assay type: cell-based
- Test Settings: Homo sapiens, SW-620, read-out: cell panel IC50, SW620
Readings of pIC50 for the listed molecules
The read-out pIC50 is expressed as -log10 of concentration in moles per litre.

Recorded results for 2 molecules are shown here.
{"Molecule": "COc1cc(Nc2c(C#N)cnc3cc(OCCCN4CCN(C)CC4)c(OC)cc23)c(Cl)cc1Cl [bosutinib]", "System": "forty-four human cancer cell lines", "Test Result": 4.98}
{"Molecule": "N#CC[C@H](C1CCCC1)n1cc(-c2ncnc3[nH]ccc23)cn1 [ruxolitinib]", "System": "forty-four human cancer cell lines", "Test Result": 4.55}

Returns the measured pIC50 for the input molecule. Input: CN(C)C/C=C/C(=O)Nc1cc2c(Nc3ccc(F)c(Cl)c3)ncnc2cc1O[C@H]1CCOC1 [afatinib]
5.47

----------
- Test system: forty-four human cancer cell lines
- Test Protocol: Cell proliferation assay (ATPlite, 72 hours) in the 44 cell line Oncolines panel
- Assay type: cell-based
- Test Settings: Homo sapiens, BT-20, cell line BT-20; read-out: cell panel IC50, BT-20
Endpoint: IC50 (nM)
Report the value in nM with no unit label.

{"Chem Smiles": "CC(=O)O[C@@]12CO[C@@H]1C[C@H](O)[C@@]1(C)C(=O)[C@H](O)C3=C(C)[C@@H](OC(=O)[C@H](O)[C@@H](NC(=O)OC(C)(C)C)c4ccccc4)C[C@@](O)([C@@H](OC(=O)c4ccccc4)[C@H]21)C3(C)C", "System": "forty-four human cancer cell lines", "Test Result": 9}
{"Chem Smiles": "O=c1[nH]cc(F)c(=O)[nH]1", "System": "forty-four human cancer cell lines", "Test Result": 6340}
{"Chem Smiles": "CO[C@H]1C[C@@H]2CC[C@@H](C)[C@@](O)(O2)C(=O)C(=O)N2CCCC[C@H]2C(=O)O[C@H]([C@H](C)C[C@@H]2CC[C@@H](OCCO)[C@H](OC)C2)CC(=O)[C@H](C)/C=C(\\C)[C@@H](O)[C@@H](OC)C(=O)[C@H](C)C[C@H](C)/C=C/C=C/C=C/1C", "System": "forty-four human cancer cell lines", "Test Result": 7}

Item: CC(C)C[C@H](NC(=O)[C@H](Cc1ccccc1)NC(=O)c1cnccn1)B(O)O Test system: forty-four human cancer cell lines Read-out: IC50 Value: ?
64

----------
Readings of %-inhibition of MAP2K3 for the listed compounds
- System: panel of more than 300 wild-type and mutant kinases (313 kinase panel) (Homo sapiens, UniProt P46734)
- Sequence (P46734 1-347): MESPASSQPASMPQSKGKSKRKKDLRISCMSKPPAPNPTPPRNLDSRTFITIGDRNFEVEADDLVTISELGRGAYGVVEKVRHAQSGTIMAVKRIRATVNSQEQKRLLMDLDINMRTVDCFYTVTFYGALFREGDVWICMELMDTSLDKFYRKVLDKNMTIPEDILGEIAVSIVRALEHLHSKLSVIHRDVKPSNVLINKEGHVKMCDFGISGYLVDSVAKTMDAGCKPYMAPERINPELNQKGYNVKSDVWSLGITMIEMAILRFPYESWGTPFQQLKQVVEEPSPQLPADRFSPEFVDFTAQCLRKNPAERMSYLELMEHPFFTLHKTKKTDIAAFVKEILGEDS
- Test Protocol: Kinase profiling in a biochemical assay panel (mobility shift assays and ELISA), %-inhibition at 1 μM; selectivity entropy
- Test Settings: kinase MAP2K3; compound at 1 μM
Report the value in % with no unit label.

Recorded results for 4 compounds are shown here.
{"Compound": "CO[C@H]1C[C@@H]2CC[C@@H](C)[C@@](O)(O2)C(=O)C(=O)N2CCCC[C@H]2C(=O)O[C@H]([C@H](C)C[C@@H]2CC[C@@H](OCCO)[C@H](OC)C2)CC(=O)[C@H](C)/C=C(\\C)[C@@H](O)[C@@H](OC)C(=O)[C@H](C)C[C@H](C)/C=C/C=C/C=C/1C", "%-inhibition of MAP2K3 (%)": 10}
{"Compound": "CNC(=O)c1cc(Oc2ccc(NC(=O)Nc3ccc(Cl)c(C(F)(F)F)c3)c(F)c2)ccn1", "%-inhibition of MAP2K3 (%)": 90}
{"Compound": "Cc1ccc(Nc2nccc(N(C)c3ccc4c(C)n(C)nc4c3)n2)cc1S(N)(=O)=O", "%-inhibition of MAP2K3 (%)": 47}
{"Compound": "N#CC[C@H](C1CCCC1)n1cc(-c2ncnc3[nH]ccc23)cn1", "%-inhibition of MAP2K3 (%)": 27}

Returns the measured %-inhibition of MAP2K3 for the input compound. Input: Cc1cn(-c2cc(NC(=O)c3ccc(C)c(Nc4nccc(-c5cccnc5)n4)c3)cc(C(F)(F)F)c2)cn1
94

Returns the measured %-inhibition of MAP2K3 for the input compound. Input: CCCS(=O)(=O)Nc1ccc(F)c(C(=O)c2c[nH]c3ncc(-c4ccc(Cl)cc4)cc23)c1F
34

Returns the measured %-inhibition of MAP2K3 for the input compound. Input: CC(=O)Nc1cccc(-n2c(=O)n(C3CC3)c(=O)c3c(Nc4ccc(I)cc4F)n(C)c(=O)c(C)c32)c1
3
